Values were extracted from ChEMBL document CHEMBL3400086.

# Test system: Liver microsome
# Assay info: Intrinsic clearance in human liver microsomes measured per gram of tissue at 2.5 uM
# Format: ADME
Parameter threshold = 1 mL/min/g. Response is 1 when CLH meets or exceeds it, else -1.

Past entries and their recorded results:
- Smiles data: "N#Cc1cc(F)cc(S(=O)(=O)c2sc3ncc(N)cc3c2-c2ccc(F)c(F)c2)c1"
  Tgt: "Liver microsome"
  Assigned label: -1
- Smiles data: "N#Cc1cc(F)cc(S(=O)(=O)c2sc3ncc(N)cc3c2-c2cccc(Cl)c2)c1"
  Tgt: "Liver microsome"
  Assigned label: -1
- Smiles data: "O=S(=O)(c1ccc(Cl)cc1)c1sc2ncccc2c1-c1ccc(F)cc1F"
  Tgt: "Liver microsome"
  Assigned label: 1
- Smiles data: "N#Cc1cc(F)cc(S(=O)(=O)c2sc3ncccc3c2-c2ccc(Cl)cc2)c1"
  Tgt: "Liver microsome"
  Assigned label: 1
- Smiles data: "N#Cc1cc(F)cc(S(=O)(=O)c2sc3ncccc3c2-c2cnccc2F)c1"
  Tgt: "Liver microsome"
  Assigned label: -1

Determine whether this compound has CLH no lower than 1 mL/min/g: `O=S(=O)(c1ccc(Cl)cc1)c1sc2ncccc2c1-c1ccccc1F` 1

Is CLH for `Nc1ccnc2sc(S(=O)(=O)c3ccc(Cl)cc3)c(-c3ccc(Cl)cc3)c12` at or above 1 mL/min/g? 1

Item `O=S(=O)(c1ccc(Cl)cc1)c1sc2ncccc2c1Oc1ccc(Cl)cc1` with CLH of 1 mL/min/g or above? 1
